For each entry below, report its growth value.
Test system: MOLT-4 leukemia
Test: NCI-60 one-dose screen, 48 h (100 = growth as untreated, 0 = no growth, -100 = all killed)
Conditions: 10 µM unless noted
Experimental: Growth inhibition of the MOLT-4 human tumor cell line is measured as a screen for anti-cancer activity. Cells are grown in 96 well plates and exposed to the test compound for 48 hours. Compounds are tested at a single concentration, which is 10^-5 M for most compounds. The reported endpoint is percent growth (GI% or GIPRCNT), where numbers from 0 - 100% represent growth inhibition, and numbers from -100% - 0 represent cell death. For example, a value of 40 represents 60% growth inhibition. […]
Compounds without any hit were thinned out: in the full panel of roughly 83,000, 20% have a hit. Calls of active or inactive are those of the source. How the source made its calls: active means growth percent below 10; inactive means the rest.

Q: Given the compound "Cn1cc(-c2csc(-c3cn(CCCN4CCCCC4)c4ccc(F)cc34)n2)c2cccnc21" , write its reported growth.
A: 70.4% (inactive)

Q: Given the compound "CCCCCCCCNc1cccc2c1C(=O)c1ccccc1C2=O" , write its reported growth.
A: 90.5% (inactive)

Q: Given the compound CC(C)(C)c1[nH]nc2c1C(c1cc3ccccc3[nH]c1=O)Nc1cc(C(=O)OCc3ccccc3)ccc1N2 (configuration not stated) , write its reported growth.
A: 18% (inactive)

Q: Given the compound "COc1ccc(NC(=S)N/N=C/c2ccccc2SSCCC(=O)OC[C@H]2O[C@H](O)[C@H](O)[C@@H](O)[C@@H]2O)cc1" , write its reported growth.
A: 65.4% (inactive)

Q: Given the compound "Cn1cc(-c2csc(-c3cn(CCN)c4ccc(F)cc34)n2)c2cccnc21" , write its reported growth.
A: 12.1% (inactive)

Q: Given the compound "O=C(N/N=C\c1ccccc1O)C1CC1" , write its reported growth.
A: 101% (inactive)

Q: Given the compound "COc1cc2nc(Cl)nc(Nc3cccc(C(=O)/C=C/c4ccc(Cl)cc4)c3)c2cc1OC" , write its reported growth.
A: 33.5% (inactive)

Q: Given the compound "S=c1[nH]nc2ccccn12" , write its reported growth.
A: 80.7% (inactive)

Q: Given the compound "Clc1ccc(Cn2cc(-c3nc4ccc(Br)nc4n3Cc3ccc(Cl)cc3)c3cccnc32)cc1" , write its reported growth.
A: 59.3% (inactive)

Q: Given the compound "NCCn1cc(-c2nc(-c3c[nH]c4ncccc34)cs2)c2cc(Br)ccc21" , write its reported growth.
A: 41.8% (inactive)

Q: Given the compound CCCC1CCCCN1C(=O)OCC(C)C (configuration not stated) , write its reported growth.
A: 95.3% (inactive)

Q: Given the compound "Cn1c(=O)c2c(ncn2CCC(=O)Nc2ccc(F)cc2)n(C)c1=O" , write its reported growth.
A: 101% (inactive)

Q: Given the compound "CC(C)(C)n1cc(-c2ccnc(NCCCNS(=O)(=O)c3ccc(Cl)cc3)c2)c(-c2cccc(F)c2)n1" , write its reported growth.
A: 55.1% (inactive)

Q: Given the compound "CCCCCCCC(=O)SCC/C=C/[C@@H]1CC(=O)NCc2cccc(n2)CN(Cc2ccc3ccccc3c2)CC(=O)N[C@@H](C(C)C)C(=O)O1" , write its reported growth.
A: 2.35% (active)

Q: Given the compound "O=C(N/N=C\c1c(O)ccc2ccccc12)C1CC1" , write its reported growth.
A: 9.27% (active)

Q: Given the compound "Cn1cc(-c2nc(-c3c[nH]c4ncccc34)cs2)c2cc(Br)ccc21" , write its reported growth.
A: 69.1% (inactive)

Q: Given the compound "CCCCC[C@H]1C/C=C2/C(=O)C=C[C@@H]2C/C=C\CCCC(=O)O[C@@H](CCCCC)C/C=C2/C(=O)C=C[C@@H]2C/C=C\CCCC(=O)O1" , write its reported growth.
A: -15.8% (active)
